Listing of recorded MIC by entry.
- Test system: clinical MDR Staphylococcus epidermidis isolates
- assay info: MIC, broth microdilution, 81 clinical MDR strains
- Assay type: cell-based
- assay context: Staphylococcus epidermidis, clinical strain 36 (Table S2); read-out: MIC
Please respond with the number in µg/mL and leave the unit unwritten.

# compound, experimental system, u, endpoint result
data = [
    ("O=S(=O)(NC1CCN(CCC(Oc2ccc(C(F)(F)F)cc2)c2cccs2)CC1)c1cccc(Br)c1 (stereo not drawn) [Compound 18]", "clinical MDR Staphylococcus epidermidis isolates", "µg/mL", 50),
    ("O=S(=O)(NC1CCN(CCC(Oc2ccc(C(F)(F)F)cc2)c2cccs2)CC1)c1cccc(Cl)c1 (stereo not drawn) [Compound 14]", "clinical MDR Staphylococcus epidermidis isolates", "µg/mL", 50),
    ("CC(=O)NC[C@H]1CN(c2ccc(N3CCOCC3)c(F)c2)C(=O)O1 [linezolid, reference compound]", "clinical MDR Staphylococcus epidermidis isolates", "µg/mL", 0.8),
]

Task: Quick one: MIC for O=S(=O)(NC1CCN(CCC(Oc2ccc(C(F)(F)F)cc2)c2ccccc2)CC1)c1cccc(Cl)c1 (stereo not drawn) [Compound 12] ?
Result: 50

Task: Quick one: MIC for O=S(=O)(NC1CCN(CCC(Oc2ccc(C(F)(F)F)cc2)c2cccs2)CC1)c1cccc(C(F)(F)F)c1 (stereo not drawn) [Compound 21] ?
Result: 50

Task: Quick one: MIC for O=C(Nc1cccc(Cl)c1)NC1CCN(CCC(Oc2ccc(C(F)(F)F)cc2)c2cccs2)CC1 (stereo not drawn) [Compound 25] ?
Result: 0.8
